The origin of these recorded values is paper PMC9311641.

Reported cytotoxicity at 72 h, 100 µM values follow for various molecules
- Test description: MTT cytotoxicity assay
- Format: cell-based
- Measurement setup: human, CCD-1064SK normal human skin fibroblast cells, mean ± SD of three replicates

# Molecule, Unit string, cytotoxicity at 72 h, 100 µM
data = [
    ("O=C1NC(c2cc(Br)ccc2F)Nc2ccccc21 (centres unmarked)", "%", 36),
    ("O=C1NC(c2cccc([N+](=O)[O-])c2)Nc2ccccc21 (centres unmarked)", "%", 24.1),
    ("COc1ccc(C2NC(=O)c3ccccc3N2)cc1OC (centres unmarked)", "%", 32.5),
    ("COc1cc([N+](=O)[O-])ccc1C1NC(=O)c2ccccc2N1 (centres unmarked)", "%", 31),
    ("O=C1NC(c2cccc(O)c2)Nc2ccccc21 (centres unmarked)", "%", 58.5),
    ("O=C1NC(c2cccc(I)c2)Nc2ccccc21 (centres unmarked)", "%", 72),
    ("O=C1NC(c2ccc(F)cc2)Nc2ccccc21 (centres unmarked)", "%", 44.1),
    ("O=C1NC(c2ccc(Cl)cc2)Nc2ccccc21 (centres unmarked)", "%", 57.6),
    ("O=C1NC(c2ccc(OC(F)(F)F)cc2)Nc2ccccc21 (centres unmarked)", "%", 47.6),
    ("CN(C)c1ccc(C2NC(=O)c3ccccc3N2)cc1 (centres unmarked)", "%", 54.6),
    ("N#Cc1ccc(C2NC(=O)c3ccccc3N2)cc1 (centres unmarked)", "%", 19.5),
]
